// provenance: ChEMBL document CHEMBL1142024

Entries annotated with measured pEC50
Target: Hexokinase-4 (Rattus norvegicus)
Sequence (P17712 whole entry): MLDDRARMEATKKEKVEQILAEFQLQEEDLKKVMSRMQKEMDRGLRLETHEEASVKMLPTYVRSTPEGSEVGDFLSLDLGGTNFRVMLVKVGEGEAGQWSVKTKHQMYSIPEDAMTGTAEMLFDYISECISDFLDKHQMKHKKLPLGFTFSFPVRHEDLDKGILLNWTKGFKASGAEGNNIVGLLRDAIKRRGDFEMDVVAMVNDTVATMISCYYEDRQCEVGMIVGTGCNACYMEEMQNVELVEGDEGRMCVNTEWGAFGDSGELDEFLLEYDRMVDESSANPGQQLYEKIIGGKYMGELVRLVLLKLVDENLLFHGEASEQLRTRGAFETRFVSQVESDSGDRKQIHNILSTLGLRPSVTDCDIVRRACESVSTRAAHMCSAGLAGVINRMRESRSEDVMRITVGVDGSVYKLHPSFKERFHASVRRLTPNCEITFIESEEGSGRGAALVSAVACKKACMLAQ
Test: Effective concentration for glucokinase activation with 5 mM glucose
Format: functional
Note on pEC50: it is the negative log10 of concentration, concentration in mol/L.

molecule	pEC50
COc1ccc(N(CC2CCCC2)C(=O)Nc2ncc(Cl)s2)cn1	5.57
CS(=O)(=O)c1ccc(N(Cc2cccs2)C(=O)Nc2ncc(Cl)s2)cc1	5.18
CS(=O)(=O)c1ccc(N(Cc2nccs2)C(=O)Nc2ncc(Br)s2)cc1	4.62
CS(=O)(=O)c1ccc(N(CC2CCCC2)C(=O)Nc2ncc(Cl)s2)cc1	5.82
O=C(Nc1ncc(Cl)s1)N(CC1CCCC1)c1ccc(C(F)(F)F)cc1	5.89

State its pEC50 for this molecule: CS(=O)(=O)c1ccc(N(CC2CCOC2)C(=O)Nc2ncc(Cl)s2)cc1 (stereo not given)
4.66

Supply pEC50 value. Item: CS(=O)(=O)c1ccc(N(Cc2ccco2)C(=O)Nc2ncc(Cl)s2)cc1
4.94

----------
Overview of reported pEC50 across a group of molecules:
Molecular target: Hexokinase-4 (Rattus norvegicus, UniProt P17712)
Sequence (P17712 whole entry): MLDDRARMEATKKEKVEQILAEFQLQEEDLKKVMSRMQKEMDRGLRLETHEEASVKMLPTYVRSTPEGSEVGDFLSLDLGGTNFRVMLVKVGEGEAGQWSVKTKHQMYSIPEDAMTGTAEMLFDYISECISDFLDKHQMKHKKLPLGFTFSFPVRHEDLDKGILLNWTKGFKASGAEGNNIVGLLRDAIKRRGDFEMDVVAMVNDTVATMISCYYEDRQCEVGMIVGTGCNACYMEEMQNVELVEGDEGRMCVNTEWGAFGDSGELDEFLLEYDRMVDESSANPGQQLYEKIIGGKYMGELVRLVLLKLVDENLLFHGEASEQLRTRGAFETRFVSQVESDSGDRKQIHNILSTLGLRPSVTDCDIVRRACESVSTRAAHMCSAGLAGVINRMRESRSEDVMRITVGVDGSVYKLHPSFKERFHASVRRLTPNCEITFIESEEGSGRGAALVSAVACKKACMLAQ
Experiment: Effective concentration for glucokinase activation with 15 mM glucose
Format: functional
Please express pEC50 as -log10 of the molar concentration.

molecule	number
CS(=O)(=O)c1ccc(C(CC2CCCC2)C(=O)Nc2nccs2)cc1 (configuration not stated)	6.00

Supply reported pEC50 belonging to this molecule: CS(=O)(=O)c1ccc(N(CC2CCCC2)C(=O)Nc2nccs2)cc1
5.01
